These data points were gathered from paper PMC10890502.

- system: sDSP (DSP178–627) (Homo sapiens, UniProt P15924, R451G)
- Construct: gene DSP; N-terminal spectrin repeat/SH3 fragment, residues 178-627; pGEX-1 GST fusion cut with thrombin, E. coli BL21(DE3); fluorescein-5-maleimide label on exposed cysteines (C405, C524)
- Sequence (P15924 178-627 R451G): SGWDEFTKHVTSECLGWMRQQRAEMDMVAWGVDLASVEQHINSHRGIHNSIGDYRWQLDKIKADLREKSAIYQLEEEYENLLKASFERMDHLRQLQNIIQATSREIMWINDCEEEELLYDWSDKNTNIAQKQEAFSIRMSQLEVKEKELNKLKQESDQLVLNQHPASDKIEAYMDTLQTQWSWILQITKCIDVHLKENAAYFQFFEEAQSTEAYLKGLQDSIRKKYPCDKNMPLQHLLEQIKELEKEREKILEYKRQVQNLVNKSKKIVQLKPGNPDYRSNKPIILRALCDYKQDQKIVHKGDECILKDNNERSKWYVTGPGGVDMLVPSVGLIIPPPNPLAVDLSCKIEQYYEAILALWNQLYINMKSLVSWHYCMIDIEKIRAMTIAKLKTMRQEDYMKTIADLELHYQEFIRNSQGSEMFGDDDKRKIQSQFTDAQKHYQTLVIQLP
- test description: biochemical
- Set-up: FITC-sDSP degradation by calpain (1:20), fluorescence polarization after 60 min, per cent of calpain-only control
- experimental context: degradation rate of DSP R451G by calpain; read-out: % of control remaining
Where a name gives a salt, the structure may show the parent alone.
Each record here notes measured remaining activity at 500 µM.
Express the result in % but write the number alone.

The cases that follow already have their remaining activity at 500 µM on record.
[[record]]
compound = "O=C(NC1CCN(CCCCC2(C(=O)NCC(F)(F)F)c3ccccc3-c3ccccc32)CC1)c1ccccc1-c1ccc(C(F)(F)F)cc1 [Lomitapide]"
data_value = 40

[[record]]
compound = "CCCCCCCCc1ccc(CCC(N)(CO)CO)cc1"
data_value = -13

[[record]]
compound = "Fc1ccc([C@@H]2CCNC[C@H]2COc2ccc3c(c2)OCO3)cc1"
data_value = 26

[[record]]
compound = "Cc1ccc(NC(=O)c2ccc(CN3CCN(C)CC3)cc2)cc1Nc1nccc(-c2cccnc2)n1"
data_value = 4

[[record]]
compound = "CCCCc1oc2ccc(NS(C)(=O)=O)cc2c1C(=O)c1ccc(OCCCN(CCCC)CCCC)cc1 [Dronedarone HCl]"
data_value = 20


Would you kindly share the measured remaining activity at 500 µM for NC1(Cc2ccc(Cl)cc2)CCN(c2ncnc3[nH]ccc23)CC1 ?
32

Now consider CC(=O)O[C@H]1C(=O)[C@@]2(C)[C@H]([C@H](OC(=O)c3ccccc3)[C@]3(O)C[C@H](OC(=O)[C@H](O)[C@@H](NC(=O)c4ccccc4)c4ccccc4)C(C)=C1C3(C)C)[C@]1(OC(C)=O)CO[C@@H]1C[C@@H]2O and answer again.
38

Do the same for Cn1cc(-c2ccc(F)c(C(F)(F)F)c2)nc1C1CCN(c2ncnc3[nH]ncc23)CC1 please
15
